Test system: OVCAR-4
Test: NCI tumour cell line growth inhibition, 48 h
Activity calls are given as the source filed them. No stated cut-off is given here; in the data, active = GI50 up to about 1.1 µM and inactive = higher.
ENDPOINT: GI50

INSERT INTO assay_data (molecule, test_target, endpoint, meas_value) VALUES
  ('COc1ccc(C(O)CNC(=O)c2ccccc2)cc1 (stereo unspecified)', 'OVCAR-4', 'GI50', '> 100 µM (inactive)'),
  ('C/C(=N/Nc1ccc([N+](=O)[O-])cc1[N+](=O)[O-])C(CC(C(=O)Nc1ccccc1C)/C(C)=N\Nc1ccc([N+](=O)[O-])cc1[N+](=O)[O-])C(=O)Nc1ccccc1C (stereo unspecified)', 'OVCAR-4', 'GI50', '5.74 µM (inactive)'),
  ('NC(=O)CC(Nc1ncc2c(n1)-c1ccccc1OC2)C(=O)O (stereo unspecified)', 'OVCAR-4', 'GI50', '> 100 µM (inactive)'),
  ('O=C1CCC2C(O)c3cc4c(cc3C(c3ccc5c(c3)OCO5)N12)OCO4 (stereo unspecified)', 'OVCAR-4', 'GI50', '> 100 µM (inactive)'),
  ('C[n+]1c2ccccc2c(CNCC(=O)O)c2ccccc21', 'OVCAR-4', 'GI50', '12.6 µM (inactive)'),
  ('CC(Nc1ncc2c(n1)-c1ccccc1OC2)C(=O)O (stereo unspecified)', 'OVCAR-4', 'GI50', '> 100 µM (inactive)');
